Recorded values, source paper PMC10397247.

measured.target: T1, 4H967-bN
T1 chain: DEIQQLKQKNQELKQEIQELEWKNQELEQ
procedure.details: two-hybrid library CCNG1;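 also: natural log of median RNA to DNA barcode read ratio; higher means stronger binding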
measured.parameter: interaction score

Worked examples, 2 binders total:
DEIQQLEQEIQELKQEIQELEWKNQELKQ [4H72-bN] | -0.25
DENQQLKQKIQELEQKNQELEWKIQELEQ [4H1845-bN] | -1.31

I: DKNQQLEQEIQELKQKNQELEWKIQELEQ [4H3189-bN]
II: DEIQQLKQEIQELEQKNQELEWKNQELKQ [4H568-bN]
Incoming: Which entry has a larger number for interaction score, I or II ? Refer to your chosen item by its label in the answer.
Outgoing: II
(II: -0.452, I: -1.41)
